For each of the compounds below, state its GI50.
ASSAY: Growth inhibition of human colon cancer cells after 48 hrs by SRB assay
Type: functional
EXPERIMENTAL_CONTEXT: Cancer cell lines
Respond numerically; units are µM and should not be typed.

Ask: Given the compound O=c1[nH]cc(F)c(=O)[nH]1 , what is its reported GI50?
Result: 8.4

Ask: Given the compound COc1cc(CSc2nc3ccc(C)cc3c(=O)n2Cc2ccccc2)cc(OC)c1OC , what is its reported GI50?
Result: 1.6

Ask: Given the compound COc1cc(CSc2nc3ccc(C)cc3c(=O)n2-c2ccccc2)cc(OC)c1OC , what is its reported GI50?
Result: 1.3

Ask: Given the compound COc1cc(CSc2nc3ccc(Cl)cc3c(=O)n2Cc2ccccc2)cc(OC)c1OC , what is its reported GI50?
Result: 3.1

Ask: Given the compound COc1ccccc1-n1c(SCc2cc(OC)c(OC)c(OC)c2)nc2ccc(Cl)cc2c1=O , what is its reported GI50?
Result: 3.1

Ask: Given the compound COc1ccc(-n2c(SCc3cc(OC)c(OC)c(OC)c3)nc3ccc(C)cc3c2=O)c(OC)c1 , what is its reported GI50?
Result: 4.4

Ask: Given the compound COc1ccc(-n2c(SCc3cc(OC)c(OC)c(OC)c3)nc3ccc(C)cc3c2=O)cc1 , what is its reported GI50?
Result: 18.2

Ask: Given the compound COc1cc2nc(SCc3cc(OC)c(OC)c(OC)c3)n(Cc3ccccc3)c(=O)c2cc1OC , what is its reported GI50?
Result: 2.2

---

ASSAY: Growth inhibition of human SR cells at 10 uM after 48 hrs by SRB assay relative to control
Format: functional
EXPERIMENTAL_CONTEXT: read-out: GI
For each of the compounds below, state its inhibition of growth at 10 µM.

Ask: Given the compound COc1cc(CSc2nc3ccc(Cl)cc3c(=O)n2-c2ccccc2)cc(OC)c1OC , what is its reported inhibition of growth at 10 µM?
Result: 54.4%

Ask: Given the compound COc1ccccc1-n1c(SCc2cc(OC)c(OC)c(OC)c2)nc2ccc(Cl)cc2c1=O , what is its reported inhibition of growth at 10 µM?
Result: 84%

Ask: Given the compound COc1ccc(-n2c(SCc3cc(OC)c(OC)c(OC)c3)nc3ccc(C)cc3c2=O)c(OC)c1 , what is its reported inhibition of growth at 10 µM?
Result: 92.3%

Ask: Given the compound COc1ccc(-n2c(SCc3cc(OC)c(OC)c(OC)c3)nc3ccc(Cl)cc3c2=O)cc1 , what is its reported inhibition of growth at 10 µM?
Result: < 10%

Ask: Given the compound COc1cc2nc(SCc3cc(OC)c(OC)c(OC)c3)n(-c3ccccc3OC)c(=O)c2cc1OC , what is its reported inhibition of growth at 10 µM?
Result: 76.2%

Ask: Given the compound COc1cc2nc(SCc3cc(OC)c(OC)c(OC)c3)n(Cc3ccccc3)c(=O)c2cc1OC , what is its reported inhibition of growth at 10 µM?
Result: 93.8%

Ask: Given the compound COc1ccc(CSc2nc3cc(OC)c(OC)cc3c(=O)n2-c2ccc(OC)cc2OC)cc1 , what is its reported inhibition of growth at 10 µM?
Result: 40.6%

Ask: Given the compound COc1cc(CSc2nc3ccc(C)cc3c(=O)n2-c2ccccc2)cc(OC)c1OC , what is its reported inhibition of growth at 10 µM?
Result: 79.7%

Ask: Given the compound COc1cc(CSc2nc3ccc(Cl)cc3c(=O)n2Cc2ccccc2)cc(OC)c1OC , what is its reported inhibition of growth at 10 µM?
Result: 76.9%

Ask: Given the compound COc1ccc(-n2c(SCc3cc(OC)c(OC)c(OC)c3)nc3ccc(C)cc3c2=O)cc1 , what is its reported inhibition of growth at 10 µM?
Result: 77%

Ask: Given the compound COc1cc(CSc2nc3ccc(C)cc3c(=O)n2Cc2ccccc2)cc(OC)c1OC , what is its reported inhibition of growth at 10 µM?
Result: 82%

---

For each of the compounds below, state its TGI.
ASSAY: Growth inhibition of human renal cancer cells after 48 hrs by SRB assay
Format: functional
EXPERIMENTAL_CONTEXT: Cancer cell lines
Respond numerically; units are µM and should not be typed.

Ask: Given the compound COc1cc2nc(SCc3cc(OC)c(OC)c(OC)c3)n(Cc3ccccc3)c(=O)c2cc1OC , what is its reported TGI?
Result: 49.1

Ask: Given the compound COc1cc(CSc2nc3ccc(Cl)cc3c(=O)n2Cc2ccccc2)cc(OC)c1OC , what is its reported TGI?
Result: 52.3

Ask: Given the compound COc1cc(CSc2nc3ccc(C)cc3c(=O)n2Cc2ccccc2)cc(OC)c1OC , what is its reported TGI?
Result: 61.4

Ask: Given the compound COc1ccc(-n2c(SCc3cc(OC)c(OC)c(OC)c3)nc3ccc(C)cc3c2=O)cc1 , what is its reported TGI?
Result: 88.1

Ask: Given the compound COc1cc(CSc2nc3ccc(C)cc3c(=O)n2-c2ccccc2)cc(OC)c1OC , what is its reported TGI?
Result: 76.9

Ask: Given the compound COc1ccc(-n2c(SCc3cc(OC)c(OC)c(OC)c3)nc3ccc(C)cc3c2=O)c(OC)c1 , what is its reported TGI?
Result: 92.5

Ask: Given the compound COc1ccccc1-n1c(SCc2cc(OC)c(OC)c(OC)c2)nc2ccc(Cl)cc2c1=O , what is its reported TGI?
Result: 93.5

---

MEASURED_TARGET: UniProt P00376
Sequence (P00376 whole entry): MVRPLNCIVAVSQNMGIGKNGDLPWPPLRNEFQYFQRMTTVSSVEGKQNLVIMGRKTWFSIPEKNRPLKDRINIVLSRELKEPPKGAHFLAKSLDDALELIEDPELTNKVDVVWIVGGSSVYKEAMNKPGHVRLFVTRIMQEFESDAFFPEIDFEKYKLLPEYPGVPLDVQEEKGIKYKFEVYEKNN
# note: boundary value 1 µM maps to -1; IC50 below it maps to 1

Ask: A record lists COc1cc(CSc2nc3ccc(Cl)cc3c(=O)n2-c2ccccc2)cc(OC)c1OC . Is its IC50 below 1 µM?
Result: 1

Ask: A record lists COc1ccc(CSc2nc3cc(OC)c(OC)cc3c(=O)n2-c2ccc(Cl)cc2)cc1 . Is its IC50 below 1 µM?
Result: -1

Ask: A record lists COc1cc2nc(SCc3cc(OC)c(OC)c(OC)c3)n(-c3ccc(C)cc3)c(=O)c2cc1OC . Is its IC50 below 1 µM?
Result: -1

Ask: A record lists COc1ccc(CSc2nc3cc(OC)c(OC)cc3c(=O)n2-c2ccc(OC)cc2OC)cc1 . Is its IC50 below 1 µM?
Result: 1

Ask: A record lists COc1cc2nc(SCc3cc(OC)c(OC)c(OC)c3)n(-c3ccc(Cl)cc3)c(=O)c2cc1OC . Is its IC50 below 1 µM?
Result: 1

Ask: A record lists COc1ccc(CSc2nc3ccc(Cl)cc3c(=O)n2-c2ccc(OC)cc2)cc1 . Is its IC50 below 1 µM?
Result: 1

Ask: A record lists COc1ccc(CSc2nc3ccc(C)cc3c(=O)n2-c2ccc(OC)cc2)cc1 . Is its IC50 below 1 µM?
Result: -1

---

For each of the molecules below, state its GI50.
ASSAY: Growth inhibition of human ovarian cancer cells after 48 hrs by SRB assay
Type: functional
EXPERIMENTAL_CONTEXT: Cancer cell lines
Respond numerically; units are µM and should not be typed.

Ask: Given the molecule COc1ccc(-n2c(SCc3cc(OC)c(OC)c(OC)c3)nc3ccc(C)cc3c2=O)c(OC)c1 , what is its reported GI50?
Result: 5.1

Ask: Given the molecule O=c1[nH]cc(F)c(=O)[nH]1 , what is its reported GI50?
Result: 61.4

Ask: Given the molecule COc1ccc(-n2c(SCc3cc(OC)c(OC)c(OC)c3)nc3ccc(C)cc3c2=O)cc1 , what is its reported GI50?
Result: 46.9

Ask: Given the molecule COc1cc(CSc2nc3ccc(C)cc3c(=O)n2-c2ccccc2)cc(OC)c1OC , what is its reported GI50?
Result: 4

Ask: Given the molecule COc1ccccc1-n1c(SCc2cc(OC)c(OC)c(OC)c2)nc2ccc(Cl)cc2c1=O , what is its reported GI50?
Result: 6.7

Ask: Given the molecule COc1cc(CSc2nc3ccc(C)cc3c(=O)n2Cc2ccccc2)cc(OC)c1OC , what is its reported GI50?
Result: 3.3

Ask: Given the molecule COc1cc(CSc2nc3ccc(Cl)cc3c(=O)n2Cc2ccccc2)cc(OC)c1OC , what is its reported GI50?
Result: 5.2

Ask: Given the molecule COc1cc2nc(SCc3cc(OC)c(OC)c(OC)c3)n(Cc3ccccc3)c(=O)c2cc1OC , what is its reported GI50?
Result: 6.4

---

For each of the compounds below, state its zone of inhibition at 200 µg/disc.
Tested on: Pseudomonas aeruginosa
ASSAY: Antimicrobial activity against Pseudomonas aeruginosa IFO 3448 at 200 ug/disc measured after 24 hrs by agar disc-diffusion method
Format: functional
EXPERIMENTAL_CONTEXT: IFO 3448, 24 h, read-out: DIZ
Respond numerically; units are mm and should not be typed.

Ask: # query: zone of inhibition at 200 µg/disc | item COc1cc2nc(SCc3cc(OC)c(OC)c(OC)c3)n(Cc3ccccc3)c(=O)c2cc1OC | system: Pseudomonas aeruginosa
Result: 8

Ask: # query: zone of inhibition at 200 µg/disc | item COc1ccc(CSc2nc3cc(OC)c(OC)cc3c(=O)n2-c2ccc(Cl)cc2)cc1 | system: Pseudomonas aeruginosa
Result: 8

Ask: # query: zone of inhibition at 200 µg/disc | item COc1ccc(CSc2nc3cc(OC)c(OC)cc3c(=O)n2-c2ccccc2)cc1 | system: Pseudomonas aeruginosa
Result: 8

Ask: # query: zone of inhibition at 200 µg/disc | item COc1cc(CSc2nc3ccc(Cl)cc3c(=O)n2-c2ccccc2)cc(OC)c1OC | system: Pseudomonas aeruginosa
Result: 8

Ask: # query: zone of inhibition at 200 µg/disc | item O=C(O)c1cn(C2CC2)c2cc(N3CCNCC3)c(F)cc2c1=O | system: Pseudomonas aeruginosa
Result: 36

Ask: # query: zone of inhibition at 200 µg/disc | item COc1ccc(CSc2nc3ccc(Cl)cc3c(=O)n2-c2ccc(OC)cc2OC)cc1 | system: Pseudomonas aeruginosa
Result: 8

Ask: # query: zone of inhibition at 200 µg/disc | item COc1ccc(CSc2nc3ccc(Cl)cc3c(=O)n2-c2ccccc2)cc1 | system: Pseudomonas aeruginosa
Result: 8

Ask: # query: zone of inhibition at 200 µg/disc | item COc1cc2nc(SCc3cc(OC)c(OC)c(OC)c3)n(-c3ccccc3)c(=O)c2cc1OC | system: Pseudomonas aeruginosa
Result: 16

Ask: # query: zone of inhibition at 200 µg/disc | item COc1cc2nc(SCc3cc(OC)c(OC)c(OC)c3)n(-c3ccc(Cl)cc3)c(=O)c2cc1OC | system: Pseudomonas aeruginosa
Result: 12

Ask: # query: zone of inhibition at 200 µg/disc | item COc1ccc(CSc2nc3ccc(C)cc3c(=O)n2-c2ccccc2)cc1 | system: Pseudomonas aeruginosa
Result: 12

Where these numbers come from: ChEMBL document CHEMBL3860041
